As shown below, each of these compounds has a reported EC50 value.
system: A/Malaysia/Muar/33/2009 (H1N1); experiment: Antiviral (virus inhibition) assay in MDCK cells, plaque reduction; assay type: cell-based; conditions: Influenza A virus

Use the examples below as a reference point.
compound | assay-target | readout-value
CCOC(=O)/C=C/c1cc(OC)c(OC(C)C)c([N+](=O)[O-])c1 [MY3] | A/Malaysia/Muar/33/2009 (H1N1) | 7.5 µM
CCCCOC(=O)/C=C/c1cc(OC)c(O)c([N+](=O)[O-])c1 [MY15] | A/Malaysia/Muar/33/2009 (H1N1) | ~0.95 µM
COc1cc(C=O)cc(O)c1O [MY23, 3-hydroxyvanillin] | A/Malaysia/Muar/33/2009 (H1N1) | 40.5 µM
COc1cc(/C=C/C(=O)O)ccc1O [FA, Ferulic acid, reference compound] | A/Malaysia/Muar/33/2009 (H1N1) | 1.32 µM
COc1cc(C=O)cc(N=C(N)N)c1O [MY21, guanidino vanillin] | A/Malaysia/Muar/33/2009 (H1N1) | 1.7 µM
COc1cc(C=O)ccc1O [VN, Vanillin, reference compound] | A/Malaysia/Muar/33/2009 (H1N1) | 6.05 µM

What the record says about CCC(CC)O[C@@H]1C=C(C(=O)O)C[C@H](N)[C@H]1NC(C)=O [Oseltamivir carboxylate, reference compound] : EC50 is 35 µM
